tested on: HePG2 hepatocarcinoma cells; format: cell-based; conditions: human, 4 h, 1 μM
Consider the following molecules; for each one, report its Cell viability.
One number for each entry, in %.

Worked examples follow.
MOLECULE: COc1cc(-c2cnc(N)c(-c3cc(OC)c(OC)c(OC)c3)c2)ccc1O
TEST SYSTEM: HePG2 hepatocarcinoma cells
RESULT UNITS: %
Cell viability: 96
--
MOLECULE: Nc1ncc(-c2ccc(N3CCNCC3)cc2)cc1-c1cccc2ncccc12
TEST SYSTEM: HePG2 hepatocarcinoma cells
RESULT UNITS: %
Cell viability: 96
--
MOLECULE: Nc1ncc(-c2ccc(N3CCNCC3)cc2)cc1-c1ccc2c(c1)OCCO2
TEST SYSTEM: HePG2 hepatocarcinoma cells
RESULT UNITS: %
Cell viability: 100
--
MOLECULE: COc1ccc(-c2cc(-c3ccc(N4CCNCC4)cc3)cnc2N)cc1
TEST SYSTEM: HePG2 hepatocarcinoma cells
RESULT UNITS: %
Cell viability: 106

Lab note: each molecule below needs its Cell viability filled in.
1. COc1cc(-c2cc(-c3ccc(N4CCNCC4)cc3)cnc2N)ccc1Cl
2. CCCS(=O)(=O)Nc1ccc(F)c(C(=O)c2c[nH]c3ncc(-c4ccc(Cl)cc4)cc23)c1F [Vemurafenib, reference compound]
3. COc1cc(-c2cc(-c3cccc(O)c3)cnc2N)cc(OC)c1OC [Compound K02288, reference compound]

Outgoing:
[96, 103, 103]

Lab note: each molecule below needs its Cell viability filled in.
1. COc1cc(OC)cc(-c2cc(-c3ccc(N4CCNCC4)cc3)cnc2N)c1
2. CCN(CC)CCNC(=O)c1c(C)[nH]c(/C=C2\C(=O)Nc3ccc(F)cc32)c1C [Sunitinib, reference compound]
3. Nc1ncc(-c2ccc(N3CCNCC3)cc2)cc1-c1ccnc2ccccc12

Outgoing:
[95, 97, 91]

====

Molecular target: ALK2 (Homo sapiens, UniProt Q04771, Q207D)
Construct: His tag (TEV-cleavable) (N, cleaved yes); made in house; host or cells: Sf9 insect cells (baculovirus)
Sequence (Q04771 201-499 Q207D): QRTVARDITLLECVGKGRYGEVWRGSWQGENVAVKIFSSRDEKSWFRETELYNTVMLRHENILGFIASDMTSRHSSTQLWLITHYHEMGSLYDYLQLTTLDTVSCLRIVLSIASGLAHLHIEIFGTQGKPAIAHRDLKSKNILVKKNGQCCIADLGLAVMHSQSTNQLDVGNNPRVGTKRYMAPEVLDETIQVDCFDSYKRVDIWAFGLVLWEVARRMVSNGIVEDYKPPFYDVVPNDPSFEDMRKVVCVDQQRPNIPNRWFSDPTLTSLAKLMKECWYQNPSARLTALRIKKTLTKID
Experiment: Thermal shift kinase assay ALK2
Assay type: binding
Settings: ALK2 minus ALK5
Method: Thermal melting experiments were performed using a Real Time PCR machine Mx3005p (Stratagene) with a protein concentration of 1-2 μM and 10 μM inhibitor as described by Niesen et al., Nat Protoc 2007, 2, 2212-21. Recombinant human kinases for DSF screening were prepared by SGC using the published methods of Sanvitale et al., PLoS One 2013, 8, e62721. […]
Consider the following molecules; for each one, report its ΔTmDiff..
One number for each entry.

Lab note: each molecule below needs its ΔTmDiff. filled in.
1. COc1cc(-c2cnc(N)c(-c3cc(OC)c(OC)c(OC)c3)c2)ccc1O [Compound 12]
2. COc1cc(-c2cc(-c3ccc(N4CCNCC4)cc3)cnc2C)cc(OC)c1OC [Compound 10]
3. COc1cc(OC)cc(-c2cncc(-c3ccc(N4CCNCC4)cc3)c2)c1 [Compound 33]
4. Nc1ncc(-c2ccc(N3CCNCC3)cc2)cc1-c1cccc2ncccc12 [Compound 31]
5. Nc1ncc(-c2ccc(N3CCNCC3)cc2)cc1-c1ccnc2ccccc12 [Compound 29]

Outgoing:
[1.7, 4.0, 4.7, 4.2, 3.4]

====

test system: HePG2 hepatocarcinoma cells; format: cell-based; details: human, 4 h, 1 μM
Consider the following compounds; for each one, report its Cell viability.
Numbers only, in %.

Worked examples follow.
COMPOUND: Cc1cn(-c2cc(NC(=O)c3ccc(C)c(Nc4nccc(-c5cccnc5)n4)c3)cc(C(F)(F)F)c2)cn1 [Nilotinib, reference compound]
Cell viability (%): 99

COMPOUND: COc1cccc(-c2cc(-c3ccc(N4CCNCC4)cc3)cnc2N)c1
Cell viability (%): 98

COMPOUND: COc1cc2ncnc(Nc3ccc(F)c(Cl)c3)c2cc1OCCCN1CCOCC1 [Gefitinib, reference compound]
Cell viability (%): 93

Lab note: each compound below needs its Cell viability filled in.
1. COc1cc(-c2cc(-c3cccc(N4CCNCC4)c3)cnc2N)cc(OC)c1OC
2. COc1cc(-c2cnn3cc(-c4ccc(N5CCNCC5)cc4)cnc23)cc(OC)c1OC
3. COc1cc(-c2cc(-c3ccc(N4CCNCC4)cc3)cnc2Cl)cc(OC)c1OC

Outgoing:
1: 96; 2: 92; 3: 95
